system: T cells / MDSCs; assay: Promotion of T cell proliferation in a co-culture model of MDSCs and T cells; format: cell-based, mouse; details: Mus musculus, T-cell, 12 h, read-out: T-cell proliferation rate (%), 1 μM, MDSCs treated 12 hours, co-culture of MDSCs and T cells, compared to the control group
Assignment: determine reported activation at 1 µM for the given compounds.

Which activation at 1 µM value belongs to C=C1C(=O)O[C@H]2[C@H]1CCC(C)=C1CC[C@@](C)(O)[C@@H]12 [MCL, Micheliolide] ?
20 to 40%

Could you do the same for CC1=C2CC[C@@](C)(OC(=O)N3CCCCC3)[C@@H]2[C@H]2OC(=O)[C@@H](CN(C)C)[C@@H]2CC1 , please?
0 to 20%

Could you do the same for C=C1C(=O)O[C@H]2[C@H]1CCC(C)=C1CC[C@@](C)(OC(=O)NCCCN3CCN(C)CC3)[C@@H]12 , please?
20 to 40%

Could you do the same for C=C1C(=O)O[C@H]2[C@H]1CCC(C)=C1CC[C@@](C)(OC(=O)NCCCCCO)[C@@H]12 , please?
20 to 40%

Could you do the same for C=C1C(=O)O[C@H]2[C@H]1CCC(C)=C1CC[C@@](C)(OC(=O)NCCN3CCN(C)CC3)[C@@H]12 , please?
20 to 40%

Could you do the same for CN(C)C[C@@H]1C(=O)O[C@H]2[C@H]1CC[C@@]1(C)C[C@]13C[C@@H](O)[C@@](C)(O)[C@H]23 , please?
0 to 20%

Could you do the same for C=C1C(=O)O[C@H]2[C@H]1CCC(C)=C1CC[C@@](C)(OC(=O)NCCC)[C@@H]12 , please?
0 to 20%
